Tested on: Plasmodium berghei
Experiment: Screen against P. berghei liver stage (PbLuc), transformed with Luciferase, at 10uM
Type: functional, HepG2
Details: tested at 10 uM
In all, about 69,000 compounds went through this assay and about 8,600 (12%) showed an effect of 50% or more. The list comes from a sample in which strong results are over-represented; it also holds close analogues and randomly drawn compounds.
readout-label: INHIBITION

1. CCOc1cc(/C=C/c2ncc(C(=O)O)s2)ccc1O    -6.62%
2. CCOCCOc1ccc(S(=O)(=O)N2CCc3c(nc[nH]c3=O)C2)cc1    5.05%
3. CNC(=O)c1cnc(/C=C/c2cc(OC)cc(OC)c2)s1    -76.5%
4. CCOc1c(Br)cc(/C=C/c2ncc(C(=O)O)s2)cc1OC    -39.3%
5. CNC(=O)c1cnc(/C=C/c2ccc(OC)c(O)c2)s1    40.1%
6. c1ccc(CNc2ccccc2N2CCCC2)nc1    74.8%
7. CNC(=O)c1cnc(C=Cc2cc(OC)c(O)c(OC)c2)s1    50%
8. COCCCC1(CO)CCCN(Cc2ccc(F)c(OC)c2)C1 (configuration not stated)    -58.9%
9. Cc1nc(N2CCCC2)ccc1NCc1ccccn1    42.3%
10. COc1cc(/C=C/c2ncc(C(=O)O)s2)cc(Cl)c1O    -20.9%
11. CNC(=O)c1cnc(C=Cc2ccc(O)c(OC)c2)s1    -84.4%
12. CCn1ccc(C(=O)Nc2ccc3c(c2)C(C)(C)C(=O)N3C)n1    40%

---

Test system: Plasmodium berghei
Assay: Screen against P. berghei liver stage (PbLuc), transformed with Luciferase, at 10uM
Format: functional, HepG2
Settings: tested at 10 uM
In all, about 69,000 compounds went through this assay and about 8,600 (12%) showed an effect of 50% or more. What follows is part of a selection rich in strong results, with near analogues and random picks from the rest.
Param threshold (40%) applies to INHIBITION; output satisfied when value >= threshold, not satisfied when value < threshold.

1) Cc1nc2ccccc2nc1CN1CCOC(Cn2cccn2)C1 (stereo not drawn)    not satisfied
2) O=C1CCc2cc(S(=O)(=O)NC(=O)c3ccc4c(c3)CCO4)ccc2N1    satisfied
3) CC(C)NC(=O)N1C[C@@H]2C[C@H](C(=O)NCc3ccccc3)[C@H](C1)O2    not satisfied
4) Cc1cnn(CC2CN(Cc3nc(C)c4ccccc4n3)CCO2)c1 (stereo not drawn)    not satisfied
5) COc1ccc(C(=O)N(C)Cc2nnc3ccccn23)cc1    not satisfied
6) Cc1nc(C)n(CC2CN(Cc3cccc(OC(C)C)c3)CCO2)n1 (stereo not drawn)    satisfied
7) Cc1nc(CN2CCOC(Cn3cncn3)C2)nc2ccccc12 (stereo not drawn)    not satisfied
8) c1ccc2oc(CN3CCOC(Cn4cccn4)C3)nc2c1 (stereo not drawn)    not satisfied
9) c1ccc2sc(CN3CCOC(Cn4cccn4)C3)nc2c1 (stereo not drawn)    satisfied
10) Cc1cccc(CNC(=O)CCc2c(C)nc3cc(O)nn3c2C)n1    not satisfied
11) COC(=O)Cn1c(=O)cc(C(F)F)c2c(C)nn(CC(F)F)c21    not satisfied
12) Cc1ccc(CN2C[C@@H]3COC[C@@H](CC(=O)N4CCOCC4)[C@@H]3C2)s1    not satisfied
13) c1ccc2sc(N3CCOC(Cn4cccn4)C3)nc2c1 (stereo not drawn)    not satisfied
14) c1coc(CN2C[C@@H]3OCCN(CC4CCCO4)[C@@H]3C2)c1 (stereo partly drawn)    satisfied
15) O=C(CN1CCCC1Cn1cccn1)NCCOc1cccc(F)c1 (stereo not drawn)    satisfied
16) COCCO[C@H]1CCN(C(=O)c2ccno2)[C@H]1Cc1ccncc1    not satisfied
17) Cn1c(CN2CCOC(Cn3cncn3)C2)nc2ccccc21 (stereo not drawn)    not satisfied
18) Cc1nc(-c2cccc(Cl)c2)n(CC(=O)NCC2CCCO2)c(=O)c1C (stereo not drawn)    not satisfied
19) c1ccc2sc(CN3CCOC(Cn4cncn4)C3)nc2c1 (stereo not drawn)    satisfied
20) Cc1cnn(CC2CN(Cc3nc4ccccc4nc3C)CCO2)c1 (stereo not drawn)    satisfied
21) COCc1ccc(C(=O)NS(=O)(=O)c2ccc3c(c2)CCC(=O)N3)cc1    satisfied
22) Cc1cnn(CC2CN(Cc3cccc(OCC(N)=O)c3)CCO2)c1 (stereo not drawn)    not satisfied
